Overview of recorded IC50 for various compounds
molecular target: Dual specificity tyrosine-phosphorylation-regulated kinase 1A (Mus musculus) (UniProt Q61214)
Write down the numeric answer in µM and omit the unit.

# count of solved cases: 2
COc1cc(/C=C2\C(=O)NN(c3ccc(C#N)cc3)C2=O)ccc1O	0.6
COc1ccccc1/C=C1\C(=O)NN(c2ccc(C#N)cc2)C1=O	40

Please report the recorded IC50 for COc1cc(/C=C2\C(=O)NN(c3ccc(Cl)c(Cl)c3)C2=O)ccc1O .
2.5

Same question for O=C1NN(c2ccc(Cl)c(Cl)c2)C(=O)/C1=C/c1cccc(Cl)c1Cl please.
15

###

Overview of recorded pIC50 for various compounds
target: Dual specificity tyrosine-phosphorylation-regulated kinase 1A (Mus musculus) (UniProt Q61214); experiment: Inhibition of Dyrk1 autophosphorylation
pIC50: −log10 of the molar value.

# count of solved cases: 8
COc1ccccc1/C=C1\C(=O)NN(c2ccc(F)cc2)C1=O	< 4.30
O=C1NN(c2ccc(Cl)c(Cl)c2)C(=O)/C1=C/c1ccc(O)cc1	5.60
COc1ccc(/C=C2\C(=O)NN(c3ccc(Cl)c(Cl)c3)C2=O)cc1OC	< 4.30
O=C1NN(c2ccc(Cl)c(Cl)c2)C(=O)/C1=C/c1c(Cl)cccc1Cl	< 4.30
COc1ccc(N2NC(=O)/C(=C\c3ccccc3OC)C2=O)cc1	< 4.30
COc1ccc(/C=C2\C(=O)NN(c3ccc(Cl)c(Cl)c3)C2=O)cc1O	< 4.30
COc1cccc(/C=C2\C(=O)NN(c3ccc(Cl)c(Cl)c3)C2=O)c1	< 4.30
COc1ccccc1/C=C1\C(=O)NN(c2ccc(Cl)c(Cl)c2)C1=O	< 4.30

Please report the recorded pIC50 for O=C1NN(c2ccc(Cl)c(Cl)c2)C(=O)/C1=C/c1ccccc1 .
< 4.30

Same question for O=C1NN(c2ccc(Cl)c(Cl)c2)C(=O)/C1=C/c1ccccc1F please.
< 4.30

Same question for COc1cc(/C=C2\C(=O)NN(c3ccc(Cl)c(Cl)c3)C2=O)cc(OC)c1 please.
4.70

Same question for COc1ccc(/C=C2\C(=O)NN(c3ccc(Cl)c(Cl)c3)C2=O)cc1 please.
< 4.30

###

Here we list molecules with their recorded pIC50 when tested on UniProt Q61214.
pIC50: −log10 of the molar value.

# count of solved cases: 5
COc1ccc(/C=C2\C(=O)NN(c3ccc(Cl)c(Cl)c3)C2=O)c(OC)c1	< 4.30
COc1ccc(N2NC(=O)/C(=C\c3cccc(OC)c3)C2=O)cc1	< 4.30
COc1ccc(N2NC(=O)/C(=C\c3cc(O)cc(O)c3)C2=O)cc1	< 4.30
COc1ccc(N2NC(=O)/C(=C\c3cc(OC)cc(OC)c3)C2=O)cc1	< 4.30
COc1ccc(N2NC(=O)/C(=C\c3cccc(Cl)c3Cl)C2=O)cc1	< 4.30

Please report the recorded pIC50 for COc1ccc(N2NC(=O)/C(=C\c3cc(OC)c(O)c(OC)c3)C2=O)cc1 .
< 4.30

Same question for COc1cc(/C=C2\C(=O)NN(c3ccc(Cl)c(Cl)c3)C2=O)cc(OC)c1O please.
< 4.30

Same question for COc1ccc(N2NC(=O)/C(=C\c3ccc(OC)c(O)c3)C2=O)cc1 please.
< 4.30

###

Here we list compounds with their recorded IC50 when tested on Dual specificity tyrosine-phosphorylation-regulated kinase 1A (Mus musculus).
Write down the numeric answer in µM and omit the unit.

O=C1NN(c2ccc(Cl)c(Cl)c2)C(=O)/C1=C/c1ccccc1Cl	20
O=C1NN(c2ccc(Cl)c(Cl)c2)C(=O)/C1=C/c1ccc(Cl)cc1	20
O=C1NN(c2ccc(Cl)c(Cl)c2)C(=O)/C1=C/c1ccc(F)c(F)c1	5
COc1ccc(N2NC(=O)/C(=C\c3ccc(O)c(OC)c3)C2=O)cc1	1.2

Please report the recorded IC50 for O=C1NN(c2ccc(Cl)c(Cl)c2)C(=O)/C1=C/c1ccc(O)c([N+](=O)[O-])c1 .
0.6
